The reported numbers originate from the RNAGym collection of RNA variant scans (doi:10.1073/pnas.2313332121).

B1: TPR t1 (parent)
chain: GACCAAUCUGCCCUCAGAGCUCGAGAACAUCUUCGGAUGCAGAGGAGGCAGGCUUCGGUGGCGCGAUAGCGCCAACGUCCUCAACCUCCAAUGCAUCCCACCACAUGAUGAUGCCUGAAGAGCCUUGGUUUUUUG

# Variants of: B1
# TEST_PROTOCOL: polymerase ribozyme fitness, log enrichment relative to wild type (log ratio); higher = more active; in vitro selection for triplet polymerase activity
MEASURED_ATTRIBUTE: polymerase ribozyme fitness (log ratio)
Give bare numbers.

Use these answered entries as a reference point.
> print(dat)
                       change                       measured.attribute  reported.value
1                   C22G G63C  polymerase ribozyme fitness (log ratio)           -4.13
2             C64U C98U G120U  polymerase ribozyme fitness (log ratio)          -0.972
3              C11G C73U C80U  polymerase ribozyme fitness (log ratio)          -0.636
4  C72U A95G C98U G113A A118G  polymerase ribozyme fitness (log ratio)           -4.04
5        C40G A41U C70U C124G  polymerase ribozyme fitness (log ratio)           -3.14

For each listed entry, give its polymerase ribozyme fitness (log ratio).
1. C56U
2. C3A A16U C73G
3. A74G C101U
4. A29G U38G C73G C82U A100G C115G

### Response
0.0734
-3.81
0.132
-7.25

Here are 7 variants. What values of polymerase ribozyme fitness (log ratio) were reported for them?
1. C8G A41G C53G G93U
2. U33G C76G C88A C115U
3. C20A G45A
4. G93U C101A G113U G117A
5. G58U C82U C94U C114A
6. U9A G71U C104U
7. C11G G25C G39A C56A C72G C82A A111C

### Response
1: -0.406; 2: -6.6; 3: -2.28; 4: -6.98; 5: -2.23; 6: 0.24; 7: -7.55
